biological target: T1, recombinant human IL-6 (human, UniProt P05231 30-212); assay: SPR (Biacore), purified IgG on Protein A, 37 C
T1 construct: Flowed in solution over the captured antibodies
T1 sequence (P05231 30-212 limits assumed): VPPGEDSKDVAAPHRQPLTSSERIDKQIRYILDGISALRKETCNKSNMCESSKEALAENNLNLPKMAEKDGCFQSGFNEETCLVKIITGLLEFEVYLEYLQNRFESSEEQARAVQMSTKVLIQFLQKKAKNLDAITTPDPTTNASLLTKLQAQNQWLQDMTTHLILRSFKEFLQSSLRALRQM
MEASURED ATTRIBUTE: koff (s⁻¹)
The answer is to be given in s⁻¹; state only the numeric part.

Observe how each entry below is paired with its result.
BINDER	UNITS	OBSERVED RESULT
anti-IL-6 antibody, heavy chain M34W, light chain WT (antibody, IgG1, V domains shown, Full IgG1 tested; VL as in m2) VH: EVQLVESGGGLVQPGGSLRLSCAASGFTFSPFAWSWVRQAPGKGLEWVAKISPGGSWTYYSDTVTGRFTFSLDTSKSTAYLQMNSLRAEDTAVYYCARQLWGYYALDIWGQGTLVTVSS VL: DIQLTQSPSSLSASVGDRVTITCSASISVSYMYWYQQKPGKAPKLLIYDMSNLASGVPSRFSGSGSGTDFTLTISSLQPEDFATYYCMQWSGYPYTFGQGTKVEIK	s⁻¹	0.000236
anti-IL-6 antibody, heavy chain WT, light chain I27L (antibody, IgG1, V domains shown, Full IgG1 tested; V domains derived as in m2) VH: EVQLVESGGGLVQPGGSLRLSCAASGFTFSPFAMSWVRQAPGKGLEWVAKISPGGSWTYYSDTVTGRFTFSLDTSKSTAYLQMNSLRAEDTAVYYCARQLWGYYALDIWGQGTLVTVSS VL: DIQLTQSPSSLSASVGDRVTITCSASLSVSYMYWYQQKPGKAPKLLIYDMSNLASGVPSRFSGSGSGTDFTLTISSLQPEDFATYYCMQWSGYPYTFGQGTKVEIK	s⁻¹	0.000449
anti-IL-6 antibody, heavy chain G26S, light chain WT (antibody, IgG1, V domains shown, Full IgG1 tested; V domains derived as in m2) VH: EVQLVESGGGLVQPGGSLRLSCAASSFTFSPFAMSWVRQAPGKGLEWVAKISPGGSWTYYSDTVTGRFTFSLDTSKSTAYLQMNSLRAEDTAVYYCARQLWGYYALDIWGQGTLVTVSS VL: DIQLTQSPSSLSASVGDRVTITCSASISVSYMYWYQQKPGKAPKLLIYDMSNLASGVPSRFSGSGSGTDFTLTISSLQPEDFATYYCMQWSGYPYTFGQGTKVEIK	s⁻¹	0.00039
anti-IL-6 antibody, heavy chain F32G, light chain WT (antibody, IgG1, V domains shown, Full IgG1 tested; V domains derived as in m2) VH: EVQLVESGGGLVQPGGSLRLSCAASGFTFSPGAMSWVRQAPGKGLEWVAKISPGGSWTYYSDTVTGRFTFSLDTSKSTAYLQMNSLRAEDTAVYYCARQLWGYYALDIWGQGTLVTVSS VL: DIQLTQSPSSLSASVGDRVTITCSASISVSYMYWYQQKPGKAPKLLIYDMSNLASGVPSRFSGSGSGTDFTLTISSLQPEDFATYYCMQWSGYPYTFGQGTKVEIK	s⁻¹	0.00037

Alright, here's another binder for you.
// query I am curious: what koff value has been reported for anti-IL-6 antibody, heavy chain WT, light chain I27F (antibody, IgG1, V domains shown, Full IgG1 tested; V domains derived as in m2) VH: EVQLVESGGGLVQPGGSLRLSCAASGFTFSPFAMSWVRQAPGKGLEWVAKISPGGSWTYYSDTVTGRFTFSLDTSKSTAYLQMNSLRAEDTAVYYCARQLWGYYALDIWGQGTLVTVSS VL: DIQLTQSPSSLSASVGDRVTITCSASFSVSYMYWYQQKPGKAPKLLIYDMSNLASGVPSRFSGSGSGTDFTLTISSLQPEDFATYYCMQWSGYPYTFGQGTKVEIK ?
// result 0.00069

Cited source: patent US20240209076A1
